method.description: Cmax in pregnant human patient with uncomplicated multidrug-resistant Plasmodium falciparum malaria at 120 mg, po administered as 4 tablets BID for 5 days coadministered with 20 mg artemether measured after 7 days by two-compartment population pharmacokinetic model
Type: ADME, organism-based
Set-up: dose 120 mg, route oral
condition.summary: female, in vivo
measured.endpoint: Cmax (ng/mL)

molecule: CCCCN(CCCC)CC(O)c1cc(Cl)cc2c1-c1ccc(Cl)cc1/C2=C/c1ccc(Cl)cc1 (stereo unspecified) [LUMEFANTRINE]
measured.endpoint: Cmax
unit.of.measure: ng/mL
result: 498
